Target: pY705-STAT3 in PBMC (Homo sapiens)
Construct: Cryopreserved Peripheral Blood Mononuclear Cells (PBMC) are from AllCells; host or cells: cryopreserved PBMC
Assay: MSD-pSTAT-PBMC Assay (pSTAT3, IL-6 stimulated)
Assay type: cell-based
Details: PBMC, compound 3 hrs, then 10 ng/mL IL-6 for 10 min; Table 1114; read-out: pSTAT3
Experimental: Cryopreserved Peripheral Blood Mononuclear Cells (PBMC) are from AllCells. Recombinant Human IL-4 and IL-6 are from Peprotech. […] Cyropreserved PBMCs were thawed out and allowed to recover overnight in IMDM+10% heat-inactivated FBS prior to plating 50,000 (STAT3) or 25,000 (STAT6) cells per well in 96-well U-bottom tissue culture plates. […] Assay plates were then washed and 150 μL of 1× Read Buffer-T (MSD) was added to each well prior to reading on an SQ120 MSD Plate Reader. […]
ENDPOINT LABEL: IC50

CC(C)CC(=O)SCCOP(=O)(OCCSC(=O)CC(C)C)C(F)(F)c1ccc2ccc(C(=O)N[C@H]3CCCC[C@H]4CC[C@@H](C(=O)N5C[C@H](c6cc[nH]c(=O)c6)[C@@H](C#N)C5)N4C3=O)cc2c1 (single isomer, unassigned)
0.1 to 1 µM
CC(C)(CO)C(=O)SCCOP(=O)(Oc1ccccc1)C(F)(F)c1ccc2sc(C(=O)N[C@H]3CCC[C@H]4CC[C@@H](C(=O)N5CC(c6cccnc6)C5)N4C3=O)cc2c1 (stereo partly shown)
0.1 to 1 µM
CC(C)(CO)C(=O)SCCOP(=O)(OCCSC(=O)C(C)(C)CO)C(F)(F)c1ccc2sc(C(=O)N[C@H]3CCCC[C@H]4CC[C@@H](C(=O)N5C[C@@H](C#N)[C@H](c6ccccc6)C5)N4C3=O)cc2c1 (single isomer, unassigned)
1 to 3 µM

Consider now this further compound.
// sample CC(C)CC(=O)SCCOP(=O)(OCOC(=O)OC(C)C)C(F)(F)c1ccc2sc(C(=O)N[C@H]3CCCC[C@H]4CC[C@@H](C(=O)N5C[C@H](c6ccccc6)[C@@H](C#N)C5)N4C3=O)cc2c1 (single isomer, unassigned) , its IC50 was 0.1 to 1 µM

* * *

biological target: pY705-STAT3 in PBMC (Homo sapiens, UniProt P40763); construct: Cryopreserved Peripheral Blood Mononuclear Cells (PBMC) are from AllCells; host or cells: cryopreserved PBMC; experiment: MSD-pSTAT-PBMC Assay (pSTAT3, IL-6 stimulated); type: cell-based; details: PBMC, compound 3 hrs, then 10 ng/mL IL-6 for 10 min; Table 115; read-out: STAT3
Sequence (P40763 whole entry): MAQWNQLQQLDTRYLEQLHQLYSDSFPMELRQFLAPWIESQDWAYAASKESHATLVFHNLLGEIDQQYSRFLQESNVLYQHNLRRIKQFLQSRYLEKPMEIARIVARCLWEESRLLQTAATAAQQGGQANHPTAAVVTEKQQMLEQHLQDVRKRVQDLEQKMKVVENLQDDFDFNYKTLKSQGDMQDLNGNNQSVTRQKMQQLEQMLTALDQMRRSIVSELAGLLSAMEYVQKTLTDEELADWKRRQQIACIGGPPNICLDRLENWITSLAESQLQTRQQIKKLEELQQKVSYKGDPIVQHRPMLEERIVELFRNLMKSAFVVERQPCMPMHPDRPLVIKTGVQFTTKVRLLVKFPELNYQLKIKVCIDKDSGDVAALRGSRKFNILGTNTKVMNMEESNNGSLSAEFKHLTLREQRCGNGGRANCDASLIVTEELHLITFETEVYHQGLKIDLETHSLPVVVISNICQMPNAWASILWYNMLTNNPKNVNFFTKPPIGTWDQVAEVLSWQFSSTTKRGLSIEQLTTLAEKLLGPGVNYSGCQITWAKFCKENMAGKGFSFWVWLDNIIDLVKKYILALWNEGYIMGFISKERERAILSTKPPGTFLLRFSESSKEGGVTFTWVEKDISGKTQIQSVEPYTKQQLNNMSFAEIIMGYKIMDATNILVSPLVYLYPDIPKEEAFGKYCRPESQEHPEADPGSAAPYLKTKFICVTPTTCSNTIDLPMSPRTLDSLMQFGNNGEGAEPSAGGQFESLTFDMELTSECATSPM
pIC50: −log10 of the molar value.
ENDPOINT LABEL: pIC50

Examples with their reported pIC50 follow.
CCCCOC(=O)[C@H](C)N(C)P(=O)(Oc1ccccc1)C(F)(F)c1ccc2sc(C(=O)N[C@H]3CCC[C@H]4CC[C@@H](C(=O)N5CC(c6cccnc6)C5)N4C3=O)cc2c1 (some centres unmarked)
< 5.52
CC(C)OC(=O)[C@@H]1CCCN1P(=O)(Cc1ccc2sc(C(=O)N[C@H]3CCC[C@H]4CC[C@@H](C(=O)N5CC(c6cccnc6)C5)N4C3=O)cc2c1)Oc1ccccc1 (some centres unmarked)
5.52 to 6.00
CCCOC(=O)[C@H](C)NP(=O)(Oc1ccccc1)[C@@H](F)c1ccc2sc(C(=O)N[C@H]3CCC[C@H]4CC[C@@H](C(=O)N5CC(c6cncc(F)c6O)C5)N4C3=O)cc2c1 (some centres unmarked)
6.00 to 7.00
CCCCOC(=O)[C@H](C)NP(=O)(Cc1ccc2sc(C(=O)N[C@H]3CCC[C@H]4CC[C@@H](C(=O)N5CC(c6ncccc6C)C5)N4C3=O)cc2c1)Oc1ccccc1 (some centres unmarked)
6.00 to 7.00

Consider now this further compound.
// sample CC(C)OC(=O)[C@H](C)NP(=O)(Oc1ccccc1)C(F)c1ccc2sc(C(=O)N[C@H]3CCC[C@H]4CC[C@@H](C(=O)N5CC(c6cnccc6F)C5)N4C3=O)cc2c1 (some centres unmarked) , its pIC50 was > 7.00

* * *

Please provide measured pIC50 for the entries that follow.
Biological target: Recombinant STAT6 protein (STAT6 (W123-T658)) (Homo sapiens, UniProt P42226)
Construct: Recombinant STAT6 protein (STAT6 (W123-T658))
Sequence (P42226 123-658): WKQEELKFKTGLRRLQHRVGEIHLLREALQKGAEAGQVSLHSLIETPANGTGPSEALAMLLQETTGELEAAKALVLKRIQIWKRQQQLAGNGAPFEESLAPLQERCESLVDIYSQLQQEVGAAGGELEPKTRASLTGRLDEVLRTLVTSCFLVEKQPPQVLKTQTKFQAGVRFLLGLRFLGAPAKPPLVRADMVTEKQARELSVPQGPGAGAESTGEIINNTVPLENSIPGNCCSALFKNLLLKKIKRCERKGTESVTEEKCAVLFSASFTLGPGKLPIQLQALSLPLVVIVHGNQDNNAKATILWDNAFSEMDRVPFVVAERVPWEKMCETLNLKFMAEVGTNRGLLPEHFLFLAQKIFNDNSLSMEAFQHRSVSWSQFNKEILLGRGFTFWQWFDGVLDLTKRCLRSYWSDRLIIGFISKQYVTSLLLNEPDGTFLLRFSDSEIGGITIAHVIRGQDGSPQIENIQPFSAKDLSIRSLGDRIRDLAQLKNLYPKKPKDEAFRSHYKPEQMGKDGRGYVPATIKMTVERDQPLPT
Experiment: STAT6 Fluorescence Polarization (FP) Assay
Type: binding
Conditions: STAT6 250 nM, probe 5-FAM-Ap[…]-NH2 2 nM, 45-minute incubation; read-out: STAT6 (FP assay IC50)
Procedure: STAT6 Fluorescence Polarization (FP) Assay An FP assay was developed to determine IC50 values for test substances. […] Reaction components were mixed, and FP was measured after 45-minute incubation at room temperature using a Tecan Spark multimode plate reader. FP signal (mP) was plotted against the log concentration of the test substances and IC50 values were calculated by nonlinear regression analysis using GraphPad Prism software. […]
pIC50: −log10 of the molar value.

Examples with their reported pIC50 follow.
O=C(N[C@H]1CCC[C@H]2CC[C@@H](C(=O)N3CC(N4CCOCC4)C3)N2C1=O)c1cc2cc(C(F)(F)P(=O)(O)O)ccc2s1 [Compound 34]
4.52 to 5.52
O=C(N[C@H]1CCC[C@H]2CC[C@@H](C(=O)NCc3c[nH]c4ncccc34)N2C1=O)c1cc2cc(C(F)(F)P(=O)(O)O)ccc2s1 [Compound 31]
5.52 to 6.52
N#Cc1cccc(C2CN(C(=O)[C@@H]3CC[C@@H]4CCC[C@H](NC(=O)c5cc6cc(C(F)(F)P(=O)(O)O)ccc6s5)C(=O)N43)C2)c1 [Compound 51]
5.52 to 6.52
O=C(N[C@H]1CCCC[C@H]2CC[C@@H](C(=O)N3CC(F)(c4ccccc4F)C3)N2C1=O)c1cc2cc(C(F)(F)P(=O)(O)O)ccc2s1 [Compound 54]
5.52 to 6.52
O=C(N[C@H]1CCC[C@H]2CC[C@@H](C(=O)N3CC(C(=O)N4CCOCC4)C3)N2C1=O)c1cc2cc(C(F)(F)P(=O)(O)O)ccc2s1 [Compound 94]
4.52 to 5.52
CCCC(=O)NC1(c2ccccn2)CN(C(=O)[C@@H]2CC[C@@H]3CCCC[C@H](NC(=O)c4cc5cc(C(F)(F)P(=O)(O)O)ccc5s4)C(=O)N32)C1 [Compound 122]
4.52 to 5.52
O=C(N[C@H]1CCCC[C@H]2CC[C@@H](C(=O)NC(CO)Cc3ccccc3)N2C1=O)c1cc2cc(C(F)(F)P(=O)(O)O)ccc2s1 (stereo partly shown) [Compound 98]
4.52 to 5.52
O=C(N[C@H]1CC/C=C\[C@H]2CC[C@@H](C(=O)N3CC(c4cccnc4)C3)N2C1=O)c1cc2cc(C(F)(F)P(=O)(O)O)ccc2s1 [Compound 26]
5.52 to 6.52

Batch of 2 compounds: report pIC50 for each.
1. N#C[C@H]1CN(C(=O)[C@@H]2CC[C@@H]3CCCCC[C@H](NC(=O)c4cc5cc(C(F)(F)P(=O)(O)O)ccc5s4)C(=O)N32)C[C@@H]1c1ccccc1 (racemic) [Compound 75]
2. N#C[C@H]1CN(C(=O)[C@@H]2CC[C@@H]3CC[C@@H](N4CCC4)C[C@H](NC(=O)c4cc5cc(C(F)(F)P(=O)(O)O)ccc5s4)C(=O)N32)C[C@@H]1c1ccccc1 (mixture of isomers) [Compound 23]

≥ 6.52
5.52 to 6.52

* * *

Please provide measured IC50 for the entries that follow.
target: pY705-STAT3 in PBMC (Homo sapiens, UniProt P40763); construct: Cryopreserved Peripheral Blood Mononuclear Cells (PBMC) are from AllCells; host or cells: cryopreserved PBMC; test: MSD-pSTAT-PBMC Assay (pSTAT3, IL-6 stimulated); assay type: cell-based; conditions: PBMC, compound 3 hrs, then 10 ng/mL IL-6 for 10 min; Table 1114; read-out: pSTAT3

CC(C)(C)C(=O)SCCOP(=O)(OCCSC(=O)C(C)(C)C)C(F)(F)c1ccc2sc(C(=O)N[C@H]3CCCC[C@H]4CC[C@@H](C(=O)N5C[C@@H](C#N)[C@H](c6ccccc6)C5)N4C3=O)cc2c1 (single isomer, unassigned)
1000 to 3000 nM
CC(C)(C)C(=O)OCOP(=O)(OCOC(=O)C(C)(C)C)C(F)(F)c1ccc2sc(C(=O)N[C@H]3CCC[C@H]4CCC[C@@H](C(=O)N5CC(n6ccnc6)C5)N4C3=O)cc2c1
100 to 1000 nM
CC(C)OC(=O)OCOP(=O)(OCOC(=O)OC(C)C)[C@H](F)c1ccc2sc(C(=O)N[C@H]3CCCC[C@H]4CC[C@@H](C(=O)N5C[C@H](c6cc[nH]c(=O)c6)[C@@H](C#N)C5)N4C3=O)cc2c1 (single isomer, unassigned)
100 to 1000 nM
CCCC(=O)SCCOP(=O)(Oc1cccc(C#N)c1)C(F)(F)c1ccc2sc(C(=O)N[C@H]3CCCC[C@H]4CC[C@@H](C(=O)N5C[C@@H](C#N)[C@H](c6ccccc6)C5)N4C3=O)cc2c1 (single isomer, unassigned)
> 3000 nM
CN(C(=O)[C@@H]1CC[C@@H]2C/C=C\C[C@H](NC(=O)c3cc4cc(C(F)(F)P(=O)(OCOC(=O)C(C)(C)C)OCOC(=O)C(C)(C)C)ccc4[nH]3)C(=O)N21)c1ccccc1
100 to 1000 nM

Batch of 2 compounds: report IC50 for each.
1. CC(C)OC(=O)OCOP(=O)(Cc1ccc2sc(C(=O)N[C@H]3CCCC[C@H]4CC[C@@H](C(=O)N5C[C@@H](C#N)[C@H](c6ccccc6)C5)N4C3=O)cc2c1)OCOC(=O)OC(C)C (single isomer, unassigned)
2. CCCC(=O)SCCOP(=O)(OCCSC(=O)CCC)C(F)(F)c1ccc2sc(C(=O)N[C@H]3CCCC[C@H]4CC[C@@H](C(=O)N5C[C@@H](C#N)[C@H](c6ccccc6)C5)N4C3=O)cc2c1 (relative stereo) [Compound 126]

["> 3000 nM", "100 to 1000 nM"]

Batch of 2 compounds: report IC50 for each.
1. CC(C)OC(=O)[C@H](C)NP(=O)(Oc1ccccc1)C(F)c1ccc2sc(C(=O)N[C@H]3CCC[C@H]4CC[C@@H](C(=O)N5CC(c6cccnc6)C5)N4C3=O)cc2c1 (stereo partly drawn)
2. CC(C)OC(=O)[C@H](C)NP(=O)(Oc1ccccc1)C(F)c1ccc2sc(C(=O)N[C@H]3CCCC[C@H]4CC[C@@H](C(=O)N5C[C@H](c6cc[nH]c(=O)c6)[C@@H](C#N)C5)N4C3=O)cc2c1 (single isomer, unassigned)

100 to 1000 nM
> 3000 nM
